The compounds listed here are annotated with their kinase still bound, per cent of control.
- target.entity: RPS6KA6 KD2 (human) (UniProt Q9UK32)
- Sequence (Q9UK32 whole entry, looked up): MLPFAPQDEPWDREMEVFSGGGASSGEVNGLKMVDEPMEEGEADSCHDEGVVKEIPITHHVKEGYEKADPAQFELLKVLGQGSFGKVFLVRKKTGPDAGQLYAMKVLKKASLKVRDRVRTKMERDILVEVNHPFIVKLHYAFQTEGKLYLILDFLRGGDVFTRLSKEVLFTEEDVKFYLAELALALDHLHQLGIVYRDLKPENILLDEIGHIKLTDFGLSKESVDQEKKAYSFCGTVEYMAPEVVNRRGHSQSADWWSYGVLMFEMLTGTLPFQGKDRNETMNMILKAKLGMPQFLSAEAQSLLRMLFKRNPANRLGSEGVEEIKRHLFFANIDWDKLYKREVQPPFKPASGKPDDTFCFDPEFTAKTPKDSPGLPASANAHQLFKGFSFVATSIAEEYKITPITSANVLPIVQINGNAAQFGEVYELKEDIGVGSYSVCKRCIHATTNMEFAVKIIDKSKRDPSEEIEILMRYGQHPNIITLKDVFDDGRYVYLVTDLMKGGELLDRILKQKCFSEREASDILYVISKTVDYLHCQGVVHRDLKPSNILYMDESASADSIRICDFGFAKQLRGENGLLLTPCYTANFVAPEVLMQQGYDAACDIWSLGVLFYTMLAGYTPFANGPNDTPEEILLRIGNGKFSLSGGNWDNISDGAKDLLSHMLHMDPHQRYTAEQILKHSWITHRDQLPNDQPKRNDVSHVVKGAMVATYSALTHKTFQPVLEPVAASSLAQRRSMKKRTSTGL
- assay.info: KINOMEscan competition binding
- particulars: compound 10.0 µM
Give your result in % as a bare value.

>  <compound.smiles>
CS(=O)(=O)N1CCN(Cc2cc3nc(-c4cccc5[nH]ncc45)nc(N4CCOCC4)c3s2)CC1

>  <target.entity>
RPS6KA6 KD2 (human) (UniProt Q9UK32)

>  <result.number>
100

$$$$
>  <compound.smiles>
N#CCNC(=O)c1ccc(-c2ccnc(Nc3ccc(N4CCOCC4)cc3)n2)cc1

>  <target.entity>
RPS6KA6 KD2 (human) (UniProt Q9UK32)

>  <result.number>
52

$$$$
>  <compound.smiles>
CNC(=O)c1cc(Oc2ccc(NC(=O)Nc3ccc(Cl)c(C(F)(F)F)c3)cc2)ccn1

>  <target.entity>
RPS6KA6 KD2 (human) (UniProt Q9UK32)

>  <result.number>
38

$$$$

Exam item: Let me know recorded kinase still bound, per cent of control for O=c1cc(N2CCOCC2)oc2c(-c3cccc4c3sc3ccccc34)cccc12 , thanks.
Marked response: 79

Exam item: Let me know recorded kinase still bound, per cent of control for CNC(=O)c1ccc(Nc2cc(Nc3ccccc3S(=O)(=O)C(C)C)c3cc[nH]c3n2)nc1 , thanks.
Marked response: 100

Exam item: Let me know recorded kinase still bound, per cent of control for CCN(CC)CCCCNc1ncc2cc(-c3cc(OC)cc(OC)c3)c(NC(=O)NC(C)(C)C)nc2n1 , thanks.
Marked response: 100

Exam item: Let me know recorded kinase still bound, per cent of control for CCN1CCN(C(=O)Cc2ccc(Nc3ncc(F)c(Nc4ccc(C(=O)Nc5ccccc5Cl)cc4)n3)cc2)CC1 , thanks.
Marked response: 62

Exam item: Let me know recorded kinase still bound, per cent of control for Cc1n[nH]c2ccc(-c3cncc(OC[C@@H](N)Cc4c[nH]c5ccccc45)c3)cc12 , thanks.
Marked response: 100

Exam item: Let me know recorded kinase still bound, per cent of control for COCC(=O)NC/C=C/c1ccc2ncnc(Nc3ccc(Oc4ccc(C)nc4)c(C)c3)c2c1 , thanks.
Marked response: 88

Exam item: Let me know recorded kinase still bound, per cent of control for O=C1NC(=O)/C(=C/c2ccc3nccc(-c4ccncc4)c3c2)S1 , thanks.
Marked response: 5.2

Exam item: Let me know recorded kinase still bound, per cent of control for CCN(CC)CCCCNc1ncc2c(n1)N(C)C(=O)N(c1c(Cl)c(OC)cc(OC)c1Cl)C2 , thanks.
Marked response: 100

Exam item: Let me know recorded kinase still bound, per cent of control for CN(C)C/C=C/C(=O)Nc1ccc(C(=O)Nc2cccc(Nc3nccc(-c4cccnc4)n3)c2)cc1 , thanks.
Marked response: 97

----------
- target.entity: UniProt Q05655
- Sequence (Q05655 whole entry, looked up): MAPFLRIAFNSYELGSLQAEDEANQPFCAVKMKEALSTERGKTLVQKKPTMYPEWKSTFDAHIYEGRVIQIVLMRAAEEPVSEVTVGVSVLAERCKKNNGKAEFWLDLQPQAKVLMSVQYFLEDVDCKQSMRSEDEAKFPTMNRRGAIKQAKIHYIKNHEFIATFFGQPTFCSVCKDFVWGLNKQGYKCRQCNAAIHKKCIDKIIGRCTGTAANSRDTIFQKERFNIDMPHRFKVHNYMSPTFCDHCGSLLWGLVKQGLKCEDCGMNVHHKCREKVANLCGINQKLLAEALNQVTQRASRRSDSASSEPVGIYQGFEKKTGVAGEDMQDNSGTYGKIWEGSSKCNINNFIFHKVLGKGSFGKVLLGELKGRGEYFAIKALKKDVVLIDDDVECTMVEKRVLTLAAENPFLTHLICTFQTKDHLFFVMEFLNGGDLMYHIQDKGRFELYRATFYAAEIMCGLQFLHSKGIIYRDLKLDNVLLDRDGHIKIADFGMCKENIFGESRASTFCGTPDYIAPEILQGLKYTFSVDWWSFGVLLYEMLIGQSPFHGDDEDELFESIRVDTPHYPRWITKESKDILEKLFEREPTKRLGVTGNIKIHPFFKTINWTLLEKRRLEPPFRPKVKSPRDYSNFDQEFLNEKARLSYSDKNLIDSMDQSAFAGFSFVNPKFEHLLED
- assay.info: KINOMEscan competition binding
- particulars: compound 10.0 µM
Please respond with YES when measured kinase still bound, per cent of control is strictly beneath 80%, and with NO in all other cases.

>  <compound.smiles>
Cc1n[nH]c2ccc(-c3cncc(OC[C@@H](N)Cc4c[nH]c5ccccc45)c3)cc12

>  <category.label>
YES

$$$$

# input for lookup
Exam item: # strict comparison: is reported kinase still bound, per cent of control < 80%? input = NC(=O)Nc1cc(-c2cccc(F)c2)sc1C(=O)N[C@@H]1CCCNC1
Marked response: YES
